Test system: Rhopalosiphum padi
test name: Antifeedant activity against Rhopalosiphum padi adults fed on compound treated Hordeum vulgare annuum leaves assessed as feeding level at 50 ug/cm2 (reference value: 47 to 64%)
Assay type: functional
measurement type: Activity (%)
Respond with the bare value in %.

Recorded results for 3 compounds are shown here.
C=C1C/C(=C/C)C(=O)O[C@@H]2CCN3CC=C(COC(=O)[C@]1(C)O)[C@H]23 [SENECIPHYLLINE]    42
C/C=C1\C[C@@H](C)[C@@](C)(O)C(=O)OC/C2=C/CN(C)CC[C@@H](OC1=O)C2=O [SENKIRKINE]    53
C/C=C1/C[C@@H](C)[C@@](C)(OC(C)=O)C(=O)OC/C2=C/CN(C)CC[C@@H](OC1=O)C2=O [ACETYLSENKIRKINE]    42

Prompt: Look up Activity with Rhopalosiphum padi for this compound: C/C=C(/C)C(=O)O[C@@H]1CC[N+]2([O-])CC=C(COC(=O)[C@@](O)([C@H](C)O)C(C)(C)O)[C@H]12 (some centres undefined) [ECHIMIDINE N-OXIDE]
Response: 43

---

Test system: Myzus persicae
test name: Antifeedant activity against Myzus persicae (green peach aphid) adults fed on compound treated […] annuum leaves assessed as feeding level at 50 ug/cm2 (reference value: 43 to 70%)
Assay type: functional
measurement type: Activity (%)
Respond with the bare value in %.

C/C=C1/C[C@@H](C)[C@@](C)(O)C(=O)OCC2=CCN3CC[C@@H](OC1=O)[C@@H]23 [SENECIONINE]    40

Prompt: Give its Activity value. Item: C/C=C(/C)C(=O)O[C@@H]1CC[N+]2([O-])CC=C(COC(=O)[C@@](O)([C@H](C)O)C(C)(C)O)[C@H]12 (some centres undefined) [ECHIMIDINE N-OXIDE]
Response: 40

Prompt: Give its Activity value. Item: C/C=C1/C[C@@]2(CO)O[C@@]2(C)C(=O)OCC2=CCN3CC[C@@H](OC1=O)[C@@H]23 [ERUCIFOLINE]
Response: 31

Prompt: Give its Activity value. Item: C[C@H]1C(=O)O[C@@H]2CCN3CC=C(COC(=O)[C@](C)(O)[C@]1(C)O)[C@H]23 [MONOCROTALINE]
Response: 49

---

List of Activity values.
Tested on: Rhopalosiphum padi
test name: Antifeedant activity against Rhopalosiphum padi adults fed on compound treated Hordeum vulgare annuum leaves assessed as feeding level at 50 ug/cm2 (reference value: 47 to 64%)
Format: functional
Respond with the bare value in %.

C/C=C1\C[C@@H](C)[C@](O)(CO)C(=O)OCC2=CCN3CC[C@@H](OC1=O)[C@@H]23 (stereo in doubt; 7) [RETRORSINE]    46
C=C1C/C(=C\C)C(=O)O[C@@H]2CCN3CC=C(COC(=O)[C@]1(C)O)[C@H]23    42

Prompt: Give its Activity value. Item: C/C=C1\C[C@@H](C)[C@@](C)(O)C(=O)OCC2=CCN3CC[C@@H](OC1=O)[C@@H]23
Response: 43

Prompt: Give its Activity value. Item: C/C=C1/C[C@@H](C)[C@@](C)(O)C(=O)OCC2=CCN3CC[C@@H](OC1=O)[C@@H]23
Response: 40

Prompt: Give its Activity value. Item: C/C=C(/C)C(=O)O[C@@H]1CCN2CC=C(COC(=O)[C@@](O)([C@H](C)O)C(C)(C)O)[C@H]12
Response: 36

Prompt: Give its Activity value. Item: C[C@H]1C(=O)O[C@@H]2CCN3CC=C(COC(=O)[C@](C)(O)[C@]1(C)O)[C@H]23
Response: 37

Prompt: Give its Activity value. Item: C/C=C1\C[C@@H](C)[C@](O)(CO)C(=O)OCC2=CCN3CC[C@@H](OC1=O)[C@@H]23 (stereo in doubt; 8) [RETRORSINE]
Response: 40

Prompt: Give its Activity value. Item: C/C=C1/C[C@@]2(CO)O[C@@]2(C)C(=O)OCC2=CCN3CC[C@@H](OC1=O)[C@@H]23
Response: 43

Values from ChEMBL document CHEMBL3044600
